PROCEDURE_SUMMARY: protein stability index of a GFP-peptide fusion (yeast GPS) (PSI 1-4); higher = more stable; sorted into four equal gates, so the index is relative within each strain
DETAILS: pdr5∆

BIOPOLYMER_SEQUENCE: QAQAQAQAAQAAQAQAQ [GAL11]
protein stability index: 3.02

BIOPOLYMER_SEQUENCE: LSSLILKIFQEQSLEVF [SRB8]
protein stability index: 2.67

BIOPOLYMER_SEQUENCE: LKYLDDLKAQFQELDSK [RPN9]
protein stability index: 3.23

BIOPOLYMER_SEQUENCE: VAAASKILSNLVYQYKG [PRE2]
protein stability index: 2.5

BIOPOLYMER_SEQUENCE: FREWQYFKLSITSFDQD [POP8]
protein stability index: 2.53

BIOPOLYMER_SEQUENCE: NDWQMLEMLKPCVEDGF [RPB2]
protein stability index: 3.22

BIOPOLYMER_SEQUENCE: PDKDYLLSIPISCPLIG [FAS1]
protein stability index: 1.64

BIOPOLYMER_SEQUENCE: LPKAWISLAVEGEPVNS [COR1]
protein stability index: 2.1

* * *

PROCEDURE_SUMMARY: protein stability index of a GFP-peptide fusion (yeast GPS) (PSI 1-4); higher = more stable; sorted into four equal gates, so the index is relative within each strain
DETAILS: doa10∆
Below is a list of entries, each paired with its recorded protein stability index value.

BIOPOLYMER_SEQUENCE: TTFTHCEIHPSMILGVA [RPB2]
protein stability index: 1.75
--
BIOPOLYMER_SEQUENCE: SIVHINSQERVQDLGSA [SIR2]
protein stability index: 2.65
--
BIOPOLYMER_SEQUENCE: IEDKENSESTTQGGNVN [RPT5]
protein stability index: 3.59
--
BIOPOLYMER_SEQUENCE: IWLIKCCYFIEWKSNHK [SRB8]
protein stability index: 1.69
--
BIOPOLYMER_SEQUENCE: KKNVWRSINNLIQEHDS [BRN1]
protein stability index: 3.16
--
BIOPOLYMER_SEQUENCE: ASAASEAIRDPKNSSSP [SSN8]
protein stability index: 2.61
--
BIOPOLYMER_SEQUENCE: SGEDTNVGLPILKSLKN [YOR098C/NUP1]
protein stability index: 2.95
--
BIOPOLYMER_SEQUENCE: TLSHLRRTNTPIGRDGK [RPB2]
protein stability index: 2.14
--
BIOPOLYMER_SEQUENCE: RGLTPQEFFFHAMGGRE [RPO21]
protein stability index: 2.32
--
BIOPOLYMER_SEQUENCE: GSTFKVNQEFIFEAISL [YJL039C/NUP192]
protein stability index: 2.33
--
BIOPOLYMER_SEQUENCE: GRAGVPMEVMGLMLGEF [RPN11]
protein stability index: 1.25
--
BIOPOLYMER_SEQUENCE: DPIWQHQSLGPDGLGEV [RET1]
protein stability index: 2.96
--
BIOPOLYMER_SEQUENCE: FKQIKSADCELLGIDAT [RPO31]
protein stability index: 1.62
--
BIOPOLYMER_SEQUENCE: INLTQTYGISVVDVALK [NUT1]
protein stability index: 2.24

* * *

PROCEDURE_SUMMARY: protein stability index of a GFP-peptide fusion (yeast GPS) (PSI 1-4); higher = more stable; sorted into four equal gates, so the index is relative within each strain
DETAILS: ubr1∆
Below is a list of entries, each paired with its recorded protein stability index value.
QUANTITY: protein stability index

BIOPOLYMER_SEQUENCE: IGARSQGAKTYLERTLD [PRE5]
QUANTITY: protein stability index
VALUE_REPORTED: 3.22
//
BIOPOLYMER_SEQUENCE: EVILVDPQHKAIRRDAR [RPL15A]
QUANTITY: protein stability index
VALUE_REPORTED: 2.97
//
BIOPOLYMER_SEQUENCE: DVIATEPQGAVTHMDQI [SMD3]
QUANTITY: protein stability index
VALUE_REPORTED: 2.47
//
BIOPOLYMER_SEQUENCE: FEKVGSHLYKARLDGHD [RPN14]
QUANTITY: protein stability index
VALUE_REPORTED: 3.31
//
BIOPOLYMER_SEQUENCE: KYLLTQRVFKPVDITMM [PRP8]
QUANTITY: protein stability index
VALUE_REPORTED: 2.31
//
BIOPOLYMER_SEQUENCE: TNHSAAASTPTTTATPH [PGD1]
QUANTITY: protein stability index
VALUE_REPORTED: 2.94
//
BIOPOLYMER_SEQUENCE: KGEVVLVNIRTQTSKEQ [ITC1]
QUANTITY: protein stability index
VALUE_REPORTED: 2.56
//
BIOPOLYMER_SEQUENCE: MIYDDAHEISQGVYGAV [BRR2]
QUANTITY: protein stability index
VALUE_REPORTED: 2.67
//
BIOPOLYMER_SEQUENCE: GISSTLVSANNDNNSPH [YLR018C/POM34]
QUANTITY: protein stability index
VALUE_REPORTED: 2.96
//
BIOPOLYMER_SEQUENCE: LWNLNAYRTDVIQALGG [PRP8]
QUANTITY: protein stability index
VALUE_REPORTED: 1.93
//
BIOPOLYMER_SEQUENCE: NSDDIIDVDMDASPAPS [SRB5]
QUANTITY: protein stability index
VALUE_REPORTED: 3
//
BIOPOLYMER_SEQUENCE: HFFSKSCSFFAKLSDTL [NUT1]
QUANTITY: protein stability index
VALUE_REPORTED: 1.95
//
BIOPOLYMER_SEQUENCE: FGVPNSSKNETSKPVFS [YLR335W/NUP2]
QUANTITY: protein stability index
VALUE_REPORTED: 3.15
//
BIOPOLYMER_SEQUENCE: QGNYPTTSYIKEQENIT [DPB4]
QUANTITY: protein stability index
VALUE_REPORTED: 3.18
//
BIOPOLYMER_SEQUENCE: SSLEARYFFYLSKINAI [RPN3]
QUANTITY: protein stability index
VALUE_REPORTED: 1.75
//
BIOPOLYMER_SEQUENCE: YDRNSNNNHKDKKLLRR [SWI1]
QUANTITY: protein stability index
VALUE_REPORTED: 3.23
//
BIOPOLYMER_SEQUENCE: LVAKFLYPIFLLDDKKL [YJR042W/NUP85]
QUANTITY: protein stability index
VALUE_REPORTED: 1.26
//
BIOPOLYMER_SEQUENCE: GIHDGHIKKLLHQYYGD [FAS1]
QUANTITY: protein stability index
VALUE_REPORTED: 1.31
//
BIOPOLYMER_SEQUENCE: PAGHAGNPTNISSPIVA [YDL088C/ASM4]
QUANTITY: protein stability index
VALUE_REPORTED: 3.02
//
BIOPOLYMER_SEQUENCE: PYDKKKRVVVPQALRVL [RPL16A]
QUANTITY: protein stability index
VALUE_REPORTED: 1.35
//
BIOPOLYMER_SEQUENCE: ELRFPSPTPIQRITIPN [PRP28]
QUANTITY: protein stability index
VALUE_REPORTED: 2.06
//
BIOPOLYMER_SEQUENCE: ARNVTFDSLRNFIVHSP [GRR1]
QUANTITY: protein stability index
VALUE_REPORTED: 1.94
//
BIOPOLYMER_SEQUENCE: PRIQRADPVALYLGLKR [RPB5]
QUANTITY: protein stability index
VALUE_REPORTED: 2.28
//
BIOPOLYMER_SEQUENCE: INAQGEEIVVVASADYE [PRP8]
QUANTITY: protein stability index
VALUE_REPORTED: 2.73
//
BIOPOLYMER_SEQUENCE: NNTNTDNVSGLTRNAPL [SNF2]
QUANTITY: protein stability index
VALUE_REPORTED: 3.16
//
BIOPOLYMER_SEQUENCE: STTTSVNGSTTAGVGST [SIN4]
QUANTITY: protein stability index
VALUE_REPORTED: 2.85
//
BIOPOLYMER_SEQUENCE: ELAINLIRFDESITKAM [SMC2]
QUANTITY: protein stability index
VALUE_REPORTED: 2.65
//
BIOPOLYMER_SEQUENCE: PVYATIGVETGSEPLIQ [PRP28]
QUANTITY: protein stability index
VALUE_REPORTED: 2.86
//
BIOPOLYMER_SEQUENCE: ILTSLMRSKLEKLTLVT [CSN9]
QUANTITY: protein stability index
VALUE_REPORTED: 2.67
//
BIOPOLYMER_SEQUENCE: IWFPEDFISPELIIDKV [MED1]
QUANTITY: protein stability index
VALUE_REPORTED: 2.94
